- Test system: CYP3A4/5
- Method Notes: Direct CYP3A4/5 inhibition, midazolam 1′-hydroxylation in pooled human liver microsomes
- Particulars: pH 7.4, probe midazolam 2 μM (1′-hydroxylation)
Quantity Measured: IC50 at 5 min (nM)
Give your result in nM as a bare value.

Inquiry: Name the recorded IC50 at 5 min for CCC(C)n1ncn(-c2ccc(N3CCN(c4ccc(OCC5COC(Cn6cncn6)(c6ccc(Cl)cc6Cl)O5)cc4)CC3)cc2)c1=O (stereo not shown) .
Reply text: 210

----------
- System: CYP3A4/5
- Method Notes: in vitro
- Particulars: human, microsomes, pH 7.4
Quantity Measured: IC50 (nM)
# number only, unit nM dropped from output

Inquiry: So what's the measured IC50 for this one? CCC(C)n1ncn(-c2ccc(N3CCN(c4ccc(OCC5COC(Cn6cncn6)(c6ccc(Cl)cc6Cl)O5)cc4)CC3)cc2)c1=O (stereo not shown)
Reply text: 30
